Parameter coloration score: see the listing below.
Test system: soybean plantlets
Test: High-throughput soybean screening for herbicide tolerance (plantlets)
Format: in vivo, soybean (A3555)
Parameters: key: 0 for poor tolerance, high damage, low green coloration; 1 for some tolerance, average damage, moderate green coloration; 2 for good tolerance, low damage, high green coloration
Conditions: TP33; S-3100 spray five weeks post-transformation, scored day four
Excerpt: A high-throughput plant transformation and screening method was used to evaluate large numbers of constructs in transgenic plants for herbicide tolerance in early transformation plantlet tissue. This allowed for faster and higher volume screening of construct configurations and PPO enzymes. This permitted the side-by-side comparison of seven different HemG PPO enzymes with thirty-seven different targeting peptides using the same promoter and 3′UTR elements for gene expression. […]
Could you keep your reply to the number by itself?

[[record]]
molecule = "H_N10: E. coli wild-type HemG protoporphyrinogen oxidase, SEQ ID NO:4 (SEQ ID NO:13 lacking start methionine) (protein, listed as Escherichia coli) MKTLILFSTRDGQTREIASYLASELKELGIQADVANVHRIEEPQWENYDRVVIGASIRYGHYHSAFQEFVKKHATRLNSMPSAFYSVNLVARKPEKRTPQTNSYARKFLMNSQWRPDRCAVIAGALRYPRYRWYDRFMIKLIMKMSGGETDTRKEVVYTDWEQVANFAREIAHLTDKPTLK"
test_value = 1

[[record]]
molecule = "H_N90: microbial HemG protoporphyrinogen oxidase, SEQ ID NO:1 (SEQ ID NO:11 lacking start methionine; variants 18, 19) (protein, listed as Enterobacter cloacae) MKALVLYSTRDGQTHAIASYIASCMKEKAECDVIDLTHGEHVNLTQYDQVLIGASIRYGHFNAVLDKFIKRNVDQLNNMPSAFFCVNLTARKPEKRTPQTNPYVRKFLLATPWQPALCGVFAGALRYPRYRWIDKVMIQLIMRMTGGETDTSKEVEYTDWEQVKKFAEDFAKLSYKKAL"
test_value = 2


Request: State the recorded coloration score for this entry: H_N50: microbial HemG protoporphyrinogen oxidase, SEQ ID NO:7 (SEQ ID NO:16 lacking start methionine) (protein, listed as Shimwellia blattae) MKTLILFSTRDGQTHKIARHIAGVLEEQGKACELVDLLQPGEPDWSTVECVVLGASIRYGHFHKSFIRFVNTHAQRLNNMPGALFTVNLVARKPEKQSPQTNSYTRKFLAASPWQPQRCQVFAGALRYPRYSWYDRMMIRLIMKMAGGETDTRKEVEYTDWQSVTRFAREIAQLPGETR
Result: 1
